Test system: panel of 55 breast cancer cell lines
test.method.notes: Cell growth inhibition assay (Cell Titer Glo, 72 h, 9 doses; GI50, TGI, LC50)
Type: cell-based, human
details: Homo sapiens, BT-20, cell line BT20; read-out: GI50 (converted)
Measured GI50 values are reported for all entries that follow.
Form entry: value (nM) — number only.

O=C1c2ccccc2-[n+]2ccc3c([nH]c4ccccc43)c21    309
Cc1ccc(C(=O)N(CCCN)[C@@H](c2nc3cc(Cl)ccc3c(=O)n2Cc2ccccc2)C(C)C)cc1    17
CO[C@H]1C[C@@H]2CC[C@@H](C)[C@@](O)(O2)C(=O)C(=O)N2CCCC[C@H]2C(=O)O[C@H]([C@H](C)C[C@@H]2CC[C@@H](O)[C@H](OC)C2)CC(=O)[C@H](C)/C=C(\C)[C@@H](O)[C@@H](OC)C(=O)[C@H](C)C[C@H](C)/C=C/C=C/C=C/1C    13.5
Cc1cncc2cccc(S(=O)(=O)N3CCCN(C(=O)CN)C[C@@H]3C)c12    7080
CC(C)C[C@H](NC(=O)[C@H](Cc1ccccc1)NC(=O)c1cnccn1)B(O)O    46.8

### Prompt Identify measured GI50 corresponding to "CCN(CC)CCCCNc1ncc2cc(-c3cc(OC)cc(OC)c3)c(NC(=O)NC(C)(C)C)nc2n1"
### Response 15800

### Prompt Identify measured GI50 corresponding to C/C(=C\c1csc(C)n1)[C@@H]1C[C@@H]2O[C@]2(C)CCC[C@H](C)[C@H](O)[C@@H](C)C(=O)C(C)(C)[C@@H](O)CC(=O)N1 [Ixabepilone]
### Response 8.13
